System: A172 glioblastoma cells
PROTOCOL SUMMARY: A172 cell growth inhibition assay (CellTiter-Glo)
Format: cell-based
MEASUREMENT CONDITIONS: Homo sapiens, A 172, 48-72 hours treatment, CellTiter-Glo luminescence, test range 1-30 μM
Description: Compounds were also assayed in an A172 cell growth inhibition assay as follows. A172 glioblastoma cells were cultured in Dulbecco's modified Eagle's medium (DMEM) supplemented with 10% fetal bovine serum and 1% Penicillin-streptomycin. Incubation was performed at 37° C. and 5% CO2. […] After treatment, cells were allowed to equilibrate at room temperature for ½ to one hour. Cell proliferation was measured by Luminescence quantification using Promega CellTiter-Glo Luminescent Cell Viability Assay. […]
PROPERTY: pIC50
Formally, pIC50 is defined as -log10 of the concentration c, with c in mol/L.

Examples with answers:
# MOLECULE, pIC50
records = [
    ("O=S(=O)(Nc1ccc(OC(F)(F)F)cc1)N1CCOC(C(c2ccc(F)cc2)c2ccc(F)cc2)C1 (stereo not shown) [Example 19]", 4.74),
    ("O=S(=O)(Nc1ccc(C(F)(F)F)cc1)N1CCCC(C2c3ccccc3CCc3ccccc32)C1 (stereo not shown) [Example 40]", 4.80),
    ("O=S(=O)(Nc1ccc(OC(F)(F)F)cc1)N1CCCC(C2c3ccc(F)cc3CCc3cc(F)ccc32)C1 (stereo not shown) [Example 71]", 4.89),
    ("O=S(=O)(Nc1cccc(OC(F)(F)F)c1)N1CCCC(C2c3ccccc3CCc3ccccc32)C1 (stereo not shown) [Example 113]", 4.97),
    ("O=S(=O)(Nc1cc(Cl)cc(Cl)c1)N1CCOC(C(c2ccc(F)cc2)c2ccc(F)cc2)C1 (stereo not shown) [Example 94]", 4.63),
    ("O=S(=O)(Nc1ccc(Cl)c(Cl)c1)N1CCOC(C(c2ccc(F)cc2)c2ccc(F)cc2)C1 (stereo not shown) [Example 93]", 4.35),
]

// moving on: another record for pIC50
Return pIC50 for the following molecule: O=S(=O)(Nc1ccc(C(F)(F)F)cc1)N1CCOC(C(c2ccc(F)cc2)c2ccc(F)cc2)C1 (stereo not shown) [Example 22]
4.59

* * *

System: A172 glioblastoma cells
PROTOCOL SUMMARY: A172 cell growth inhibition assay (CellTiter-Glo)
Format: cell-based
MEASUREMENT CONDITIONS: Homo sapiens, A 172, 48-72 hours treatment, CellTiter-Glo luminescence, test range 1-30 μM
Measured pIC50 of individual entries
pIC50 is a log-scale quantity: -log10 of the concentration expressed in molar.

Take a look at these entries with their results.
# MOLECULE, RESULT VALUE
rows = [
    ("O=[N+]([O-])c1ccc(NS(=O)(=O)N2CCCC(C3c4ccccc4CCc4ccccc43)C2)cc1 (centres unmarked)", 4.29),
    ("O=S(=O)(Nc1ccc(OC(F)(F)F)cc1)N1CCCC(C2c3ccccc3CCc3ccccc32)C1 (centres unmarked)", 4.96),
]

// Input: O=S(=O)(Nc1ccc(OC(F)(F)F)cc1)N1CCCC(C(c2ccc(F)cc2)c2ccc(F)cc2)C1 (centres unmarked) . Output its pIC50 only.
4.92

Let me know recorded pIC50 for O=S(=O)(Nc1ccc(C(F)(F)F)cc1)N1CCCC(=C(c2ccc(F)cc2)c2ccc(F)cc2)C1 , thanks.
4.72

Given the molecule O=S(=O)(Nc1ccccc1)N1CCCC(=C(c2ccc(F)cc2)c2ccc(F)cc2)C1 , write its reported pIC50.
4.60

Please list pIC50 recorded for the molecule O=S(=O)(Nc1cccc(C(F)(F)F)c1)N1CCCC(=C(c2ccc(F)cc2)c2ccc(F)cc2)C1
4.52

Assign pIC50 to the following record: O=S(=O)(Nc1ccc(Cl)c(Cl)c1)N1CCCC(C(c2ccc(F)cc2)c2ccc(F)cc2)C1 (centres unmarked)
4.79

// fetch pIC50 given entry O=S(=O)(NCc1ccc(F)cc1)N1CCOC(C(c2ccc(F)cc2)c2ccc(F)cc2)C1 (centres unmarked)
4.57
